Max MFI reference
# target of assay: monkey GPC3 on HEK293T-monkey GPC3 cells (monkey)
# test details: FACS on HEK293T-monkey GPC3 cells
measure: Max MFI (MFI)

>>> reading("hAb001H2L1a (antibody, human IgG1, V domains shown) VH: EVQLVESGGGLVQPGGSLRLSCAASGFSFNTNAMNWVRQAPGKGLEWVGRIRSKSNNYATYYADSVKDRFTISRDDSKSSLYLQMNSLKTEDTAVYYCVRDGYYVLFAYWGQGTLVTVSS VL: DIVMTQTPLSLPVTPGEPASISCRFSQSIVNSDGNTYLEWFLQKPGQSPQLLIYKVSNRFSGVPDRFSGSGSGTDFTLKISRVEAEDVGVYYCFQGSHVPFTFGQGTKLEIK")
26900
>>> reading("hAb005LH1L1a (antibody, human IgG1, V domains shown) VH: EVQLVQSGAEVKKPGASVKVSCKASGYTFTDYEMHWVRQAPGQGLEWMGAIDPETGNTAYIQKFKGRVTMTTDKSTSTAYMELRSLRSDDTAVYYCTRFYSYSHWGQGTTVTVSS VL: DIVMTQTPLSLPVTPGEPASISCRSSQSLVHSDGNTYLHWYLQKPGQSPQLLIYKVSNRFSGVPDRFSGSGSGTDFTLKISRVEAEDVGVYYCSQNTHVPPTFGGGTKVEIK")
2910
>>> reading("hAb003LH1L1a (antibody, human IgG1, V domains shown) VH: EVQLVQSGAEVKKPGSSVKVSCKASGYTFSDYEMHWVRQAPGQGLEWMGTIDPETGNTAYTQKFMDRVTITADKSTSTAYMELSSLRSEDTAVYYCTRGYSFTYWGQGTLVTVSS VL: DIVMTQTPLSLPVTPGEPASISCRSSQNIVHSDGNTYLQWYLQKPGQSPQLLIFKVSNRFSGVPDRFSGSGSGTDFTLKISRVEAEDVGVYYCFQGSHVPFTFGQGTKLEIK")
22600
